Kindly state HDAC Inhibition 1 μM for each of the entries shown.
Tested on: HDAC activity (Mouse Liver Extract)
Experiment: Histone Deacetylase (HDAC) Inhibition Assay using Boc-Lys (Ac)-AMC Substrate
Type: biochemical
Conditions: inhibitor at 1 μM; mouse liver enzyme; in % (unit assumed)
No unit in the answer, please; the number alone is enough.

Sample "Cc1ncsc1/C=C(\C(=O)NCCCCCC(=O)NO)c1ccc(Br)cc1" ; HDAC Inhibition 1 μM observed: 42.7

Sample "COc1cc(/C=C(\C(=O)NCCCCCC(=O)Nc2ccccc2N)c2ccc(O)cc2)cc(OC)c1" ; HDAC Inhibition 1 μM observed: 16.9

Sample "CSc1ccc(/C=C(\C(=O)NCCCCCC(=O)NO)c2ccc(F)cc2)cc1" ; HDAC Inhibition 1 μM observed: 68

Sample "COc1ccc(/C(=C/c2c(F)ccc(F)c2F)C(=O)NCCCCCC(=O)NO)cc1" ; HDAC Inhibition 1 μM observed: 79.97

Sample "COc1cc(/C=C(\C(=O)NCCCCCC(=O)NO)c2ccc(F)cc2)ccc1O" ; HDAC Inhibition 1 μM observed: 60.53

Sample "O=C(CCCCCNC(=O)/C(=C\c1ccncc1)c1ccc(F)cc1)Nc1ccc(O)cc1[N+](=O)[O-]" ; HDAC Inhibition 1 μM observed: 1.7

Sample "O=C(CCCCCNC(=O)/C(=C\c1ccc(Cl)o1)c1ccc(F)cc1)NO" ; HDAC Inhibition 1 μM observed: 56.87

Sample "O=C(CCCCCNC(=O)/C(=C\c1ccccc1[N+](=O)[O-])c1ccc(Cl)cc1)NO" ; HDAC Inhibition 1 μM observed: 52.95

----------
System: MDAMB231/U251
Test: cells
Details: 48 h, read-out: MDAMB231/U251 GI50
Rule: GI50 below 3 µM gives t. Equal to or above 3 µM gives f.

Challenge: Field: below-cutoff. Rule: recorded GI50 strictly less than 3 µM. Subject: "CC(=O)N(O)C(=O)CCCCCNC(=O)/C(=C\c1ccc(Cl)o1)c1ccc(F)cc1"
Response given: f

Challenge: Field: below-cutoff. Rule: recorded GI50 strictly less than 3 µM. Subject: "CON(C)C(=O)CCCCCNC(=O)/C(=C\c1ccc(SC)cc1)c1ccc(F)cc1"
Response given: t

Challenge: Field: below-cutoff. Rule: recorded GI50 strictly less than 3 µM. Subject: "CSc1ccc(/C=C(\C(=O)NCCCCCC(=O)Nc2ncc([N+](=O)[O-])s2)c2ccc(F)cc2)cc1"
Response given: t

Challenge: Field: below-cutoff. Rule: recorded GI50 strictly less than 3 µM. Subject: "COc1cc(/C=C(\C(=O)NCCCCCC(=O)Nc2ccccc2O)c2ccc(F)cc2)cc(OC)c1"
Response given: f

Challenge: Field: below-cutoff. Rule: recorded GI50 strictly less than 3 µM. Subject: "CSc1ccc(/C=C(\C(=O)NCCCCCC(=O)Nc2nc3cc(C)ccc3s2)c2ccc(F)cc2)cc1"
Response given: f

Challenge: Field: below-cutoff. Rule: recorded GI50 strictly less than 3 µM. Subject: "O=C(CCCCCNC(=O)/C(=C\c1ccc(C(F)(F)F)cc1)c1ccc(F)cc1)NO"
Response given: f

Challenge: Field: below-cutoff. Rule: recorded GI50 strictly less than 3 µM. Subject: "COc1cc(/C=C(\C(=O)NCCCCCC(=O)Nc2ccccc2O)c2ccc(O)cc2)cc(OC)c1OC"
Response given: f

Challenge: Field: below-cutoff. Rule: recorded GI50 strictly less than 3 µM. Subject: "O=C(CCCCCNC(=O)/C(=C\c1ccncc1)c1ccc(F)cc1)NO"
Response given: f

Challenge: Field: below-cutoff. Rule: recorded GI50 strictly less than 3 µM. Subject: "O=C(CCCCCNC(=O)/C(=C\c1ccc(F)c(C(F)(F)F)c1)c1ccc([N+](=O)[O-])cc1)NO"
Response given: t

Challenge: Field: below-cutoff. Rule: recorded GI50 strictly less than 3 µM. Subject: "COc1cc(/C=C(\C(=O)NCCCCCC(=O)Nc2cccc(O)c2)c2ccc(F)cc2)cc(OC)c1"
Response given: f

Challenge: Field: below-cutoff. Rule: recorded GI50 strictly less than 3 µM. Subject: "COc1cc(/C=C(\C(=O)NCCCCCC(=O)NO)c2ccc(F)cc2)ccc1O"
Response given: f

Challenge: Field: below-cutoff. Rule: recorded GI50 strictly less than 3 µM. Subject: "CSc1ccc(/C=C(\C(=O)NCCCCCC(=O)NO)c2ccc(C(F)(F)F)cc2)cc1"
Response given: t

Challenge: Field: below-cutoff. Rule: recorded GI50 strictly less than 3 µM. Subject: "Cc1ncsc1/C=C(\C(=O)NCCCCCC(=O)NO)c1ccc(Br)cc1"
Response given: t

Challenge: Field: below-cutoff. Rule: recorded GI50 strictly less than 3 µM. Subject: "CSc1ccc(/C=C(\C(=O)NCCCCCC(=O)NO)c2ccc(F)cc2)cc1"
Response given: t

Challenge: Field: below-cutoff. Rule: recorded GI50 strictly less than 3 µM. Subject: "O=C(CCCCCNC(=O)/C(=C\c1ccncc1)c1ccc(F)cc1)Nc1ccc(O)cc1[N+](=O)[O-]"
Response given: f

Challenge: Field: below-cutoff. Rule: recorded GI50 strictly less than 3 µM. Subject: "COc1ccc(/C(=C/c2c(F)ccc(F)c2F)C(=O)NCCCCCC(=O)NO)cc1"
Response given: t

Challenge: Field: below-cutoff. Rule: recorded GI50 strictly less than 3 µM. Subject: "Cc1ncsc1/C=C(\C(=O)NCCCCCC(=O)NO)c1ccc(C(F)(F)F)cc1"
Response given: f

Challenge: Field: below-cutoff. Rule: recorded GI50 strictly less than 3 µM. Subject: "COc1ccc(/C=C(\C(=O)NCCCCCC(=O)NO)c2ccccc2)cc1"
Response given: f

Challenge: Field: below-cutoff. Rule: recorded GI50 strictly less than 3 µM. Subject: "O=C(CCCCCNC(=O)/C(=C\c1ccc(Cl)o1)c1ccc(F)cc1)NO"
Response given: f

Challenge: Field: below-cutoff. Rule: recorded GI50 strictly less than 3 µM. Subject: "CSc1ccc(/C=C(\C(=O)NCCCCCC(=O)NO)c2ccc([N+](=O)[O-])cc2)cc1"
Response given: f

Challenge: Field: below-cutoff. Rule: recorded GI50 strictly less than 3 µM. Subject: "Cc1cc(/C=C(\C(=O)NCCCCCC(=O)NO)c2ccc(F)cc2)ccc1F"
Response given: f

Challenge: Field: below-cutoff. Rule: recorded GI50 strictly less than 3 µM. Subject: "COc1cc(/C=C(\C(=O)NCCCCCC(=O)N(C)OC)c2ccc(O)cc2)cc(OC)c1OC"
Response given: t

Challenge: Field: below-cutoff. Rule: recorded GI50 strictly less than 3 µM. Subject: "CSc1ccc(/C=C(\C(=O)NCCCCCC(=O)NO)c2cccs2)cc1"
Response given: t

Challenge: Field: below-cutoff. Rule: recorded GI50 strictly less than 3 µM. Subject: "COc1ccc(/C(=C/c2cccc(Cl)c2)C(=O)NCCCCCC(=O)NO)cc1"
Response given: f

Challenge: Field: below-cutoff. Rule: recorded GI50 strictly less than 3 µM. Subject: "COc1cc(/C=C(\C(=O)NCCCCCC(=O)NO)c2ccc(F)cc2)cc(OC)c1"
Response given: t

Challenge: Field: below-cutoff. Rule: recorded GI50 strictly less than 3 µM. Subject: "COc1cc(/C=C(\C(=O)NCCCCCC(=O)Nc2ccccc2O)c2ccc(O)cc2)cc(OC)c1"
Response given: f

Challenge: Field: below-cutoff. Rule: recorded GI50 strictly less than 3 µM. Subject: "O=C(CCCCCNC(=O)/C(=C\c1cc(F)cc(F)c1F)c1ccc([N+](=O)[O-])cc1)NO"
Response given: f

Challenge: Field: below-cutoff. Rule: recorded GI50 strictly less than 3 µM. Subject: "O=C(CCCCCNC(=O)/C(=C\c1ccc(F)c(F)c1)c1ccc(F)cc1)Nc1nccs1"
Response given: t

Challenge: Field: below-cutoff. Rule: recorded GI50 strictly less than 3 µM. Subject: "COc1cc(/C=C(\C(=O)NCCCCCC(=O)NO)c2ccc([N+](=O)[O-])cc2)cc(OC)c1"
Response given: f

Challenge: Field: below-cutoff. Rule: recorded GI50 strictly less than 3 µM. Subject: "COc1cc(/C=C(\C(=O)NCCCCCC(=O)Nc2ccccc2N)c2ccc(O)cc2)cc(OC)c1"
Response given: f

Challenge: Field: below-cutoff. Rule: recorded GI50 strictly less than 3 µM. Subject: "O=C(CCCCCNC(=O)/C(=C\c1ccc(F)cc1Cl)c1ccccc1)NO"
Response given: f

Challenge: Field: below-cutoff. Rule: recorded GI50 strictly less than 3 µM. Subject: "Cc1ncsc1/C=C(/C(=O)NCCCCCC(=O)NO)c1cccs1"
Response given: f
